Give log10(TGI) for every item shown.
System: HOP-92 NSCLC
assay-name: NCI tumour cell line growth inhibition, 48 h
Log scale reminder: TGI in µM, then log10 taken.

Look up and state reported log10(TGI) for CN(C)C=C1C(=O)c2c(Br)sc(Br)c2C1=O 1.57

Look up and state reported log10(TGI) for O=S(=O)(NC1=NCCN1C(=S)SN1CCn2c1nsc2=S)c1ccc(Br)cc1 1.56

Look up and state reported log10(TGI) for COc1cc(OC)cc(C2CC(=O)Nc3c2c(C)nn3-c2nc3ccccc3[nH]2)c1 (centres undefined) 0.82

Look up and state reported log10(TGI) for CC(=O)c1c(C)[nH]c(-c2nc3ccc(N4CCN(C)CC4)cc3[nH]2)c1-c1ccc(OCC2CCOCC2)cc1 0.45

Look up and state reported log10(TGI) for CCN(CC)CCC(=O)NC1c2ccc(Cl)cc2Oc2c(C)cccc21 (centres undefined) 1.61

Look up and state reported log10(TGI) for CC1(C)C2CCC3=C(CCC4(C)C5C[C@](C)(C(=O)O)CC[C@]5(C)CC[C@]34C)[C@@]2(C)CC[C@@H]1O (some centres undefined) 1.59

Look up and state reported log10(TGI) for N#C/C(=C\c1cn(Cc2ccccc2)c2ccccc12)c1nn(-c2ccccc2)c(N)c1C#N 1.43

Look up and state reported log10(TGI) for COc1ccc(N2C(=O)CC(Cl)C2=O)cc1 (centres undefined) 1.87

Look up and state reported log10(TGI) for C/C1=C/C(C)CC(C)OC(=O)C(C)NC(=O)C(Cc2ccc(O)c(I)c2)N(C)C(=O)CNC(=O)C(C)C1 (centres undefined) -1.18

Look up and state reported log10(TGI) for CC1=C2[C@@H](CC1)[C@]1(C)O[C@@](C3CCCCC3)(C[C@H]1OC(=O)CO)[C@H]2OC(=O)/C=C/c1ccccc1 1.09

Look up and state reported log10(TGI) for CCCCc1c2c(nc3c1CCC/C3=C\c1ccccc1)C(=O)CCC2 1.77

---

Tested on: 786-0 renal
assay-name: NCI tumour cell line growth inhibition, 48 h
Give GI50 for every item shown.

Look up and state reported GI50 for CC1=C2[C@@H](CC1)[C@]1(C)O[C@@](C3CCCCC3)(C[C@H]1OC(=O)CO)[C@H]2OC(=O)/C=C/c1ccccc1 1.48 µM

Look up and state reported GI50 for O=C(O[C@H]1CN[C@H](C#Cc2cc3ncnc(Nc4ccc5c(ccn5Cc5cc(F)ccc5F)c4)c3s2)C1)N1CCOCC1 4.55 µM

Look up and state reported GI50 for CSc1ccc(C2=NN(C(=O)c3ccc(F)cc3)C(c3ccc(F)cc3)C2)cc1 (stereo not given) 15.5 µM

Look up and state reported GI50 for COc1ccc(CN(C)c2ccc(CO)c(Cl)c2)cc1 13.7 µM

Look up and state reported GI50 for CC[C@H](NC(=O)[C@H](C)NC)C(=O)N1C[C@@H](O)C[C@H]1Cc1c(-c2[nH]c3cc(F)ccc3c2C[C@@H]2C[C@H](O)CN2C(=O)[C@H](CC)NC(=O)[C@H](C)NC)[nH]c2cc(F)ccc12 > 100 µM

---

System: MDA-N
assay-name: NCI tumour cell line growth inhibition, 48 h
Where a SMILES comes first, the peptide text is derived from it. The star is where a group is joined. Boc = CC(C)(C)OC(=O)*; OBn = c1ccc(CO*)cc1
quantity-measured: TGI

Look up and state reported TGI for O=c1c(C=Nc2ccccc2Cl)c(O)n(-c2ccccc2)c(=O)n1-c1ccccc1 > 100 µM

Look up and state reported TGI for C[C@]12C[C@H](c3ccccc3)Nc3ccccc3N1C(c1ccccc1)=NO2 > 100 µM

Look up and state reported TGI for COc1cc(S(=O)(=O)Nc2nc(-c3ccc(N4C(=O)CSC4c4cccs4)cc3)cs2)ccc1Cl (configuration not stated) > 100 µM

Look up and state reported TGI for C=C(Cl)c1c(OC)cccc1OCc1ccccc1 > 100 µM

Look up and state reported TGI for CCOC(=O)Nc1nc2ccc(Cn3cccc3)cc2[nH]1 0.965 µM

Look up and state reported TGI for O=C1CC(=O)NC(=NN2C(=O)/C(=C/C(=O)c3ccco3)N=C2c2ccccc2)N1 > 100 µM

Look up and state reported TGI for CCOC(=O)C(C(=O)OCC)=C1NC2(c3ccccc3Nc3ccc(C)cc32)C(C#N)S1 (configuration not stated) 46.3 µM

Look up and state reported TGI for CCN(CC)CCCC(C)Nc1c2ccc(Cl)cc2nc2ccc(OC)cc12 (configuration not stated) 3.95 µM

Look up and state reported TGI for COc1cc(OCc2ccc3nc(-c4ccccc4)c(Cl)nc3c2)cc(OC)c1OC > 100 µM

Look up and state reported TGI for CN(C)c1ccc(/C=N\NC(=O)c2ccccc2Nc2ccccc2C(=O)N/N=C/c2ccc(N(C)C)cc2)cc1 > 100 µM

Look up and state reported TGI for Cn1ccnc1CC(C)(O)c1ccccc1 (configuration not stated) > 100 µM

Look up and state reported TGI for OC1(CCc2ccccc2)COC(C(F)(F)F)(C(F)(F)F)C1 (configuration not stated) > 100 µM

Look up and state reported TGI for CC(C)C(NC(=O)C(Cc1ccccc1)NC(=O)OC(C)(C)C)C(=O)NCC(=O)OCc1ccccc1 (stereo not drawn) (Boc-Phe-Val-Gly-OBn; configuration not given here) 33.5 µM

Look up and state reported TGI for CC(=O)C(I(OS(=O)(=O)c1ccc(C)cc1)c1ccccc1)=P(c1ccccc1)(c1ccccc1)c1ccccc1 33.2 µM

Look up and state reported TGI for COc1ccc(/C=C2\CCC(CNc3cc(C)on3)C2=O)cc1 (configuration not stated) > 100 µM

Look up and state reported TGI for COc1ccc(Nc2nnc(CCCCCCCCc3nnc(Nc4ccc(OC)cc4)o3)o2)cc1 > 100 µM

Look up and state reported TGI for COC(=O)C1=C(O)C(C(=O)OC)[C@]2(O)[C@H](C(=O)OC)[C@H]1C[C@@H](c1ccc(F)cc1)[C@H]2C(=O)OC (some centres not stated) 17.1 µM
